Molecular target: human macrophage elastase (HME/hMMP-12) (Homo sapiens)
Construct: 0.5 nM HME; purchased R&D Systems 917-MP
Sequence (P39900 106-470): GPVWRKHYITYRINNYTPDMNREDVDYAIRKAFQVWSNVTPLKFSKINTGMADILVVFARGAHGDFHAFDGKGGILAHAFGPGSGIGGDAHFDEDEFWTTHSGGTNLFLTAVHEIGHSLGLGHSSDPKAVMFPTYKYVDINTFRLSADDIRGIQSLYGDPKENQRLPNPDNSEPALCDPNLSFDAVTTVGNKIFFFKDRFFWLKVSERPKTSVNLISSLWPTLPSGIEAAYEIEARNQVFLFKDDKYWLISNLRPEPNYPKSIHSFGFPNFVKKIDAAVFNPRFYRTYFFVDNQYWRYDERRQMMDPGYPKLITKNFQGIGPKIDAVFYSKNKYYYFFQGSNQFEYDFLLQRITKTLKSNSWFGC
Test: In vitro HME inhibition test (standard or high-sensitivity)
Type: biochemical
Conditions: absence of serum albumin (BSA); read-out: HME IC50 (−BSA)
measure: pIC50
pIC50 here: minus log base 10 of the concentration, concentration in moles per litre.

1) O=C(O)[C@@H]1[C@@H](Cn2nnc3ccccc3c2=O)CC[C@H]1C(=O)c1ccc(OCC2CCOCC2)cc1 (stereo in doubt) [Example 2]	10.15
2) O=C(O)[C@@H]1[C@@H](Cn2nnc3ccc(C(F)(F)F)cc3c2=O)CC[C@H]1C(=O)c1ccc(OCCC2CCOCC2)cc1 (single isomer, unassigned) [Example 11]	9.72

Any idea what its pIC50 is? The compound is Cc1ccc2nnn(C[C@H]3CC[C@@H](C(=O)c4ccc(OCCC5CCOCC5)cc4)[C@@H]3C(=O)O)c(=O)c2c1 (single isomer, unassigned) [Example 20] 10.28

Follow-up item: O=C(O)[C@@H]1[C@@H](Cn2nnc3ccccc3c2=O)CC[C@H]1C(=O)c1ccc(OCCC2CCOCC2)cc1 (single isomer, unassigned) [Example 5] 10.07

Follow-up item: Cc1ccc2nnn(C[C@@H]3CC[C@H](C(=O)c4ccc(OCCC5CCOCC5)cc4)[C@H]3C(=O)O)c(=O)c2c1 (racemic) [Example 19] 9.92

Source listed as patent US20170114049A1.
